From: the RNAGym collection of RNA variant scans (doi:10.1126/science.aae0568)

Measured yeast fitness accompanies every entry in the list below.
B1: tRNA (parent)
chain: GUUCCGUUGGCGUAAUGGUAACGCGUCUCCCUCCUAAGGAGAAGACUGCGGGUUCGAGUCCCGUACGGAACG

Variants of: B1
Assay: yeast fitness relative to wild type (ratio to wild type); higher = fitter; tRNA-Arg(CCU), competitive growth, 37 C, YPD
Fewer inactive variants are shown than the library holds.
Field format: numeric only.

Query: For the variant GUUCCGUUGGCGUAAUGGUAACGCGUCUCCCUCCUAAAGAGAAGACUGCGGGUUCGUGUCCCGUACGGAACG , what yeast fitness is on record?
Result: 0.772

Query: For the variant GUUACGUUGGCGUAAUGGUAACGCGUCUCCUUCCUAAGGAGAAAUCUGCGGGUUCGAGUCCCGUACGGAACG , what yeast fitness is on record?
Result: 0.574

Query: For the variant GUUCCGUUGGCGUAAUGGUAACGCGUCUUCCUCCUAAGGAGACGACUGCGGGUUCGAGUCCCGUACGGUACG , what yeast fitness is on record?
Result: 0.673

Query: For the variant GUUCCGUUGCCGUAAUGGUAACGCGUGUCGCUCCUAAGGAGAAGACUGCGGGUUCGAAUCCCGUACGGAACG , what yeast fitness is on record?
Result: 0.557

Query: For the variant GUUCCGUUGGUGUAAUGGUAACGCGUCUCCCUCCUAAGGAGAAGACUGCGGGUUCGAGUCCCGUACGCAACG , what yeast fitness is on record?
Result: 0.814

Query: For the variant GUUCCGUUGGCGUAAUGGUAACGCGUAUCCCUCCUAAGGAGACGACUGCGGGUCCGAGUCCCGUACGGAACG , what yeast fitness is on record?
Result: 0.624

Query: For the variant GUUCCGUUGCCGUAAUGGAAACGCGUCUCCGUCCUAAGGAGGAGACUGCGGGUUCGAGUCCCGUACGGAACG , what yeast fitness is on record?
Result: 0.627

Query: For the variant GUUCCGUUGGCGUAAUGGUACCGCGUCUCCCUCCUAAGGAGAAGACUGCGGGGUCGAGUCCCGUACGGAACG , what yeast fitness is on record?
Result: 0.567

Query: For the variant GUUCCGUUGGCGUAAUGGUUAGGCGUCUCCCUCCUAAGGAGAAGCCUGCGGGUUCGAGCCCCGUACGGAACG , what yeast fitness is on record?
Result: 0.651

Query: For the variant GUUCCGUUGCCGUAAUGGUAAAGGGUUUCCCUCCUAAGGAGAAGACUGCGGGAUCGAGUCCCGUACGGAACG , what yeast fitness is on record?
Result: 0.543

Query: For the variant GAUCAGUUGGCGUAAUGGUAACGCGUCUCCCUCCUAAGGAGAAGACUGCGGGUUCCAGUCCCGUACGGAACG , what yeast fitness is on record?
Result: 0.56

Query: For the variant GUUCCGUUGGCGUAAUGGUAGCGCGUCUCCCUCCUAAGGAGAAGACUGGGGGUUCGAGCCCCGUACGGAACG , what yeast fitness is on record?
Result: 0.583

Query: For the variant GUUCCGUUGGCGUAAUGGUAACGCGUCUCUCUCCUGAGGAGAAAACUGCGGGUUCGAGUCCCGUACGGAACG , what yeast fitness is on record?
Result: 0.638

Query: For the variant GUUCCGUUGGCGUAAUGGUAACGCGUCUCCCUCCUAAGCAGAUGACUGCGGGUUCGAGUCCCGUACGGUACG , what yeast fitness is on record?
Result: 0.736
